All values here come from patent US20260015350A1.

target desc: KRas^G13D (Homo sapiens, UniProt P01116, G13D)
Construct: Biotinylated KRas (corresponding to amino acids 1-169, produced at Accelegan Inc.); biotin (biotinylated); purchased Accelegan Inc
Sequence (P01116 1-169 isoform P01116-2 G13D): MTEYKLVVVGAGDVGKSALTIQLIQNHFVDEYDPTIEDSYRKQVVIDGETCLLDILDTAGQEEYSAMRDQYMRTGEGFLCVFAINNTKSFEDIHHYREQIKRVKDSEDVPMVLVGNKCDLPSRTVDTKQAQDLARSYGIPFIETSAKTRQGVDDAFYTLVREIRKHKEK
measurement description: KRas binding assay (TR-FRET tracer displacement), KRas G13D
test conditions: single point, 10 nM compound, TR-FRET
readout label: inhibition at 0.01 µM (%)
Give just the numeric value; % need not be written.

molecule | target desc | units text | inhibition at 0.01 µM
Oc1cc(-c2ncc3c(N4C[C@@H]5C[C@H](C4)[C@H](O)C5)nc(OC[C@@]45CCCN4C[C@H](F)C5)nc3c2F)c2ccccc2c1 | KRas^G13D (Homo sapiens, UniProt P01116, G13D) | % | 53
CCc1c(F)ccc2cc(O)cc(-c3ncc4c(N5CC6CC(O)C(C6)C5)nc(OC[C@]56CCCN5[C@H](COC(=O)N(C)C)CC6)nc4c3F)c12 (stereo partly drawn) | KRas^G13D (Homo sapiens, UniProt P01116, G13D) | % | 85

Okay, now this molecule:
In: Field: inhibition at 0.01 µM (KRas^G13D (Homo sapiens, UniProt P01116, G13D)). Entry: "CCc1c(F)ccc2cc(O)cc(-c3ncc4c(N5CCCn6nncc6C5)nc(OC[C@@]56CCCN5C[C@H](F)C6)nc4c3F)c12"
Out: 69

* * *

target desc: KRas^G12V (Homo sapiens, UniProt P01116, G12V)
Construct: Biotinylated KRas (corresponding to amino acids 1-169, produced at Accelegan Inc.); biotin (biotinylated); purchased Accelegan Inc
Sequence (P01116 1-169 isoform P01116-2 G12V): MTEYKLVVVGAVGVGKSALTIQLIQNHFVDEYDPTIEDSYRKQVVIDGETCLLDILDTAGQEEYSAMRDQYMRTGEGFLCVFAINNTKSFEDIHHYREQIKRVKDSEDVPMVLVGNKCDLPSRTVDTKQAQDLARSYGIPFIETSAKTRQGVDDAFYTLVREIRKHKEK
measurement description: KRas binding assay (TR-FRET tracer displacement), KRas G12V
Label Criterion met when IC50 is strictly below 80 nM; otherwise label Criterion not met.

compound | class assignment
CCc1c(F)ccc2cc(O)cc(-c3ncc4c(N5CCCC6(CC6C#N)C5)nc(OC[C@@]56CCCN5C[C@H](F)C6)nc4c3F)c12 (stereo partly drawn) | Criterion met
Cc1cc2[nH]ncc2c(-c2ncc3c(N4CCCC5(CC(O)C5)C4)nc(OCC45CCCN4CCC5)nc3c2F)c1C (stereo not drawn) | Criterion not met
CCc1c(F)ccc2cc(O)cc(-c3ncc4c(NC5CC6(CCCO6)C5)nc(OC[C@@]56CCCN5C[C@H](F)C6)nc4c3F)c12 (stereo partly drawn) | Criterion met
C[C@@]1(O)CCCN(c2nc(OCC34CCCN3CCC4)nc3c(F)c(-c4ccc(F)c5sc(N)nc45)ncc23)C1 | Criterion not met
CCc1c(F)ccc2cc(O)cc(-c3ncc4c(N5CC6CCC(CC(N)=O)(C6)C5)nc(OC[C@@]56CCCN5C[C@H](F)C6)nc4c3F)c12 (stereo partly drawn) | Criterion met

In: is_below(IC50, 80 nM) for CCc1c(F)ccc2cc(O)cc(-c3ncc4c(N5CCCC6(CCS6(=O)=O)C5)nc(OC[C@@]56CCCN5C[C@H](F)C6)nc4c3F)c12 (stereo partly drawn) ?
Out: Criterion not met

In: Try this compound next: "CCc1c(F)ccc2cc3[nH]ncc3c(-c3ncc4c(N5CCC[C@]6(C5)NC(=O)NC6=O)nc(OCC56CCCN5CCC6)nc4c3F)c12"
Out: Criterion met

In: // query: "CN(C)C(=O)n1cc(CNc2nc(OC[C@@]34CCCN3C[C@H](F)C4)nc3c(F)c(-c4cc(O)cc5ccc(F)c(Cl)c45)ncc23)c(NC(=O)[C@H]2C[C@H](O)C2)n1"
Out: Criterion met

In: Can you check "CCc1c(F)ccc2cc(O)cc(-c3ncc4c(N5CCC[C@@](C)(O)C5)nc(OC[C@@]56CCCN5[C@H](COC(=O)NC)CC6)nc4c3F)c12" next?
Out: Criterion met

In: Subsequent entry: CCc1c(F)ccc2cc(O)cc(-c3ncc4c(N5CCCCC(P(C)(C)=O)C5)nc(OC[C@@]56CCCN5C[C@H](F)C6)nc4c3F)c12 (stereo partly drawn)
Out: Criterion met

In: Request: "CCc1c(F)ccc2cc(OC)cc(-c3ncc4c(N5C[C@@H]6C[C@H](C5)[C@H](O)C6)nc(OC[C@@]56CCCN5C[C@H](F)C6)nc4c3F)c12"
Out: Criterion not met
